- assay.details: Permeability coefficient of the compound at pH 7.4 by double-sink PAMPA
- Type: ADME
- study.conditions: read-out: permeability
Kindly state Papp for each of the entries shown.
Answers are plain numbers, in ×10⁻⁶ cm/s.

Please review the entries below; each comes with its answer.
1. Cc1cc(NCCN2CCCC2)nc2ccc(NC(=O)c3ccc(Cl)c(Cl)c3)cc12 :: 20.8
2. CCN1CCN(c2cc(C)c3cc(NC(=O)c4ccc(Cl)c(Cl)c4)ccc3n2)CC1 :: 25.9
3. CCN(CC)CCNc1cc(C)c2cc(NC(=O)c3ccc(Cl)c(Cl)c3)ccc2n1 :: 28.1

Batch request: Papp per item, same order as input.
1. Cc1cc(NCCN2CCCCC2)nc2ccc(NC(=O)c3ccc(Cl)c(Cl)c3)cc12
2. Cc1cc(NCCN(C)C)nc2ccc(NC(=O)c3ccc(Cl)c(Cl)c3)cc12
3. Cc1cc(NCCN2CCOCC2)nc2ccc(NC(=O)c3ccc(Cl)c(Cl)c3)cc12
4. Cc1cc(NCCN2CCN(C)CC2)nc2ccc(NC(=O)c3ccc(Cl)c(Cl)c3)cc12

Reply:
47.3
3.13
49.8
7.71

Reference source: ChEMBL document CHEMBL4130484
